Listed next: entries and their corresponding viability.
# Test Method Notes: HUVEC growth inhibition – cell-based, human, primary screen (AID 575);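 further: 100% = median of untreated cell wells with 0.1% DMSO on each plate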
# Applied Conditions: HUVEC proliferation, CellTiter-Glo luminescence, 72 h; at 10 µM; hits give low values
Endpoint Name: viability (%)

>  <Smiles>
Cc1cc2c(cc(C(=O)OCC(=O)NCc3cccs3)n2C(C)C)o1

>  <Assay Value>
37.3

$$$$
>  <Smiles>
Cc1nc2ccccc2c(=O)n1NC(=O)c1c(O)c2c(n(CC(C)C)c1=O)CCCC2

>  <Assay Value>
92

$$$$
>  <Smiles>
COc1ccc(C(=O)Nc2ccccc2C(=O)NCCN2CCOCC2)cc1

>  <Assay Value>
107

$$$$
>  <Smiles>
CC(=O)/C(C[N+]1(C)CCCCC1)=N\O

>  <Assay Value>
103

$$$$
>  <Smiles>
CCOC(=O)c1c(C)n(C)c2ccc(O)c(S(=O)(=O)c3ccccc3)c12

>  <Assay Value>
103

$$$$

====

# Test Method Notes: SK-BR-3 cell growth inhibitors, pilot screen, 24 h, human (AID 572);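 further: compound exposure lasted between 18 and 24 h rather than exactly 24 h; 100% = carrier-treated control wells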
# Applied Conditions: SK-BR-3 viability, CellTiter-Glo luminescence, at 10 µM, hits give low values
The source made the active and inactive calls.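 Rule for the calls: active = viability at or below 10% of carrier control in both of two separate runs; inconclusive = viability at or below 10% in only one of the two runs; inactive = the rest.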

>  <Molecule>
CNCCCC1c2ccccc2C=Cc2ccccc21

>  <viability>
82% (inactive)

$$$$
>  <Molecule>
COC(=O)c1[nH]c2ccc(C)cc2c1NC(=O)CN1CCN(C(=O)c2ccccc2)CC1

>  <viability>
130% (inactive)

$$$$
>  <Molecule>
COc1ccc(C2NC(c3ccc(OC)c(OC)c3OC)C(C)C(=O)C2C)c(OC)c1OC (stereo not given)

>  <viability>
99.5% (inactive)

$$$$
>  <Molecule>
COc1cc2c(cc1OC)CN(CC(=O)Nc1cccc(C)c1)CC2

>  <viability>
117% (inactive)

$$$$
>  <Molecule>
O=C(c1cccs1)c1cn(CC(=O)N2CCc3ccccc3C2)c2ccccc12

>  <viability>
93% (inactive)

$$$$
>  <Molecule>
CN(C)c1ccc(O)c2c1CC1CC3[C@@H](N(C)C)C(=O)C(C(N)=O)=C(O)[C@]3(O)C(=O)C1=C2O (stereo not given in full)

>  <viability>
92% (inactive)

$$$$
>  <Molecule>
Cc1ccccc1Nc1cc2ccccc2c(=O)[nH]1

>  <viability>
95.5% (inactive)

$$$$
>  <Molecule>
CCOC(=O)n1c(SCC(=O)N(CC)CC)nc2ccccc21

>  <viability>
118% (inactive)

$$$$
>  <Molecule>
Cn1c(=O)cc(OCCCC(=O)Nc2ccc3c(c2)OCCO3)c2ccccc21

>  <viability>
101% (inactive)

$$$$
>  <Molecule>
CC(C)(C)c1ccc(O)c(N)c1

>  <viability>
86% (inactive)

$$$$
>  <Molecule>
c1cc2c(cc1Cn1cnnn1)OCO2

>  <viability>
96% (inactive)

$$$$
>  <Molecule>
Cc1ccccc1C(=O)NC1CCN(Cc2nnnn2CCc2ccccc2)CC1

>  <viability>
124% (inactive)

$$$$
>  <Molecule>
CCOC(=O)CNC(=O)CSc1nnnn1-c1cc(C)ccc1C

>  <viability>
105% (inactive)

$$$$
>  <Molecule>
CC(C)CN(CC(C)C)c1nc(N)c(C#N)c(CC#N)c1C#N

>  <viability>
106% (inactive)

$$$$
>  <Molecule>
CCN(CC)S(=O)(=O)c1ccc(C(=O)N2CCN=C2SCc2cccnc2)cc1

>  <viability>
82.5% (inactive)

$$$$
>  <Molecule>
Nc1nc2c(ncn2COCCO)c(=O)[nH]1

>  <viability>
97% (inactive)

$$$$
>  <Molecule>
Cc1[nH]nc2c1C(=O)CCC2

>  <viability>
105% (inactive)

$$$$
>  <Molecule>
Cc1nn(-c2nc3ccccc3s2)c(C)c1Oc1ccccc1O

>  <viability>
102% (inactive)

$$$$
>  <Molecule>
Cc1cc(Nc2ccccc2F)n2ncnc2n1

>  <viability>
101% (inactive)

$$$$
>  <Molecule>
CCOC(=O)C1=C(N)OC2=C(C(=O)CC(C)(C)C2)C1c1ccco1 (stereo not given)

>  <viability>
90% (inactive)

$$$$

The reported numbers originate from PubChem BioAssay.
